Molecular target: Torsin-1A-interacting protein 2 (Homo sapiens) (UniProt Q8NFQ8)
Sequence (Q8NFQ8 whole entry, looked up): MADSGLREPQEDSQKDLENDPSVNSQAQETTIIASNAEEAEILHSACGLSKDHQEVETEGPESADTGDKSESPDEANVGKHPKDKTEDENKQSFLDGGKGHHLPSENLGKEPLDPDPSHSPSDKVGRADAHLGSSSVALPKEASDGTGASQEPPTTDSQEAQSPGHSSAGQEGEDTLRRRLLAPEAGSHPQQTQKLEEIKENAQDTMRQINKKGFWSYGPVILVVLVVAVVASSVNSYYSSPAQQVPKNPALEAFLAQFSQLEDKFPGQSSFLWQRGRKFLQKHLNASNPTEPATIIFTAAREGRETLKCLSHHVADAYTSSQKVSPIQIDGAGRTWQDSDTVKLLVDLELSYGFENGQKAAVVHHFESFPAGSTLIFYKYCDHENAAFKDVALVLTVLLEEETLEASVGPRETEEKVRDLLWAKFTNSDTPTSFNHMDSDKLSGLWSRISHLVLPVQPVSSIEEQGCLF
Assay: LULL1 binders on small-molecule microarray, primary screen, cell lysate, human LULL1 lysate, 635/667 nm fluorescence (AID 1092);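 further: probe is lysate of COS7 cells overexpressing human LULL1; score merges per-feature 667 nm fluorescence with signal-to-noise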
Conditions: hLULL1 lysate binding, 635 nm fluorescence, higher = more signal
Note to self: values exactly at 0.5 are Satisfied. So composite z-score at or above 0.5 is Satisfied, below is Not satisfied.

Check out these entries, answers already filled in.
### Prompt Exam item: decide whether the reported composite z-score for CCCNC(=O)OC[C@H]1O[C@H](CCON=C(C)CCN2CCc3nc(-c4ccccc4)c(-c4ccccc4)cc3C2)C=C[C@@H]1Oc1ccc(OC)cc1 is at least 0.5.
### Response Satisfied

### Prompt Exam item: decide whether the reported composite z-score for CC(=O)OC[C@H]1O[C@H](C#CC(C)(C)C)C=C[C@@H]1OC(C)=O is at least 0.5.
### Response Satisfied

### Prompt Exam item: decide whether the reported composite z-score for C[C@@H](ON=C1[C@H]2CCn3c(=O)n(-c4ccccc4)c(=O)n3[C@H]2[C@H](O)[C@@H]2O[C@H]12)c1cn([C@H](CO)Cc2ccccc2)nn1 is at least 0.5.
### Response Satisfied

Further cases:
### Prompt Exam item: decide whether the reported composite z-score for CCOC(=O)[C@H](CC(C)C)NC(=O)CCC1CC(OC(=O)NCc2cccc3ccccc23)CC2(CCCC(COC(=O)NCc3ccccc3)O2)O1 (stereo not given in full) is at least 0.5.
### Response Not satisfied

### Prompt Exam item: decide whether the reported composite z-score for CCN1C(=O)[C@H]2[C@H]3[C@H](O)[C@H](O)CC(=NOC)[C@@H]3CC[C@H]2C1=O is at least 0.5.
### Response Not satisfied

### Prompt Exam item: decide whether the reported composite z-score for O=C1[C@H]2[C@H]3[C@H](O)[C@H](O)CC(=NOCc4ccccc4)[C@H]3CC[C@H]2C(=O)N1Cc1ccccc1 is at least 0.5.
### Response Not satisfied

### Prompt Exam item: decide whether the reported composite z-score for C=C(C)C(=O)OC[C@@H]1CN2[C@@H](CC[C@@H](C)[C@@H]2c2ccc(Br)cc2)C(=O)O1 is at least 0.5.
### Response Satisfied

### Prompt Exam item: decide whether the reported composite z-score for CC(C)=CCCC(C)=CCON=C1C[C@@H](O)[C@@H](O)[C@@H]2[C@@H]3C(=O)N([C@@H](C)c4ccccc4)C(=O)[C@@H]3CC[C@H]12 is at least 0.5.
### Response Satisfied

### Prompt Exam item: decide whether the reported composite z-score for CCN1C(=O)[C@H]2[C@H]3[C@H](O)[C@H](O)CC(=NNC(=O)OCc4ccc(OC)cc4)[C@H]3CC[C@H]2C1=O is at least 0.5.
### Response Satisfied

### Prompt Exam item: decide whether the reported composite z-score for CCOC(=O)CCN1C(=O)[C@H]2[C@H]3[C@H](O)[C@H](O)CC(=NNC(=O)OCC)[C@@H]3CC[C@H]2C1=O is at least 0.5.
### Response Not satisfied

###

For each entry below, report its composite z-score value.
System: Human papillomavirus type 1a protein E7 (residues 44-93)
Experiment: HPV1a E7 fragment binders on microarrays, primary screen, biochemical, small-molecule microarray, residues 44-93, 635 nm fluorescence (AID 1108);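 further: E7 fragment applied at 1 µg/mL in TBST for 1 h at 4 C; score combines spot fluorescence with its signal to noise ratio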
Conditions: small-molecule microarray binding, fluorescence 635 nm; higher = more signal
Answers are plain numbers.

### Prompt Please indicate composite z-score recorded for CC(C)=CCCC(C)=CCON=C1C[C@@H](O)[C@@H](O)[C@@H]2[C@@H]3C(=O)N([C@@H](C)c4ccccc4)C(=O)[C@@H]3CC[C@H]12
### Response 0.893

### Prompt Please indicate composite z-score recorded for CC(C)=NO[C@@H](C)c1cc(-c2c(C)cc(C)cc2C)no1
### Response -0.379

### Prompt Please indicate composite z-score recorded for Cc1ccc(S(=O)(=O)N[C@H]2COC(=O)[C@@H](C)COC(=O)[C@H](C)NC(=O)CC=C[C@H]2C)cc1
### Response -0.799

### Prompt Please indicate composite z-score recorded for C#CCCCON=C1C[C@@H](O)[C@@H](O)[C@@H]2[C@@H]3C(=O)N(C4CCCCC4)C(=O)[C@@H]3CC[C@H]12
### Response 0.774

### Prompt Please indicate composite z-score recorded for COc1ccc(COC(=O)NN=C2C[C@@H](O)[C@@H](O)[C@@H]3[C@@H]4C(=O)N(C(C)(C)C)C(=O)[C@@H]4CC[C@H]23)cc1
### Response 1.01

Provide each entry's composite z-score from the list below.
1. C[C@@H]1CC[C@@H](C(=O)O)N[C@H]1c1ccc(-c2ccco2)cc1
2. CC(C)CON=C1C[C@@H](O)[C@@H](O)[C@@H]2[C@@H]3C(=O)N(c4cccc(Oc5ccccc5)c4)C(=O)[C@@H]3CC[C@H]12
3. CC(C)CCN1CCc2nc(-c3ccccc3)c3c(c2C1)CO[C@@H](C)C3

### Response
1. -1.68
2. 0.529
3. 1.35

###

Biological target: Pro-neuregulin-1, membrane-bound isoform (Homo sapiens) (UniProt Q02297)
Sequence (Q02297 whole entry, looked up, canonical isoform): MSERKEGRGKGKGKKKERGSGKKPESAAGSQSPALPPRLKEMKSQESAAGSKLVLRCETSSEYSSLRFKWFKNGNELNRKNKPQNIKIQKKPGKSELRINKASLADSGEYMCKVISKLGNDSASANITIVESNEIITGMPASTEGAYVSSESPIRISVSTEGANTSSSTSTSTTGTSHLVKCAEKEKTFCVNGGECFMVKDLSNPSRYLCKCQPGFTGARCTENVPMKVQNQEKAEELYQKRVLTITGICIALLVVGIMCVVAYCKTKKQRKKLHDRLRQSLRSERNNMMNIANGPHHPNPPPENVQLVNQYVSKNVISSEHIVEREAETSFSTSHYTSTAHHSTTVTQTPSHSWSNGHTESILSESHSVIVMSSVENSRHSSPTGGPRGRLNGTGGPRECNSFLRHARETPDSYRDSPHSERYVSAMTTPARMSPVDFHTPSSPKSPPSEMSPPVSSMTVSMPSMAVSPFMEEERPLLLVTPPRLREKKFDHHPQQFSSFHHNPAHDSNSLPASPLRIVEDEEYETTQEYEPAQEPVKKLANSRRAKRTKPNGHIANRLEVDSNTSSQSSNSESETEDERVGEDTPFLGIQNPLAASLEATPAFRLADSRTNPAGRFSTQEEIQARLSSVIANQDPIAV
Experiment: NRG1 binders on small-molecule microarrays, primary screen, psychiatric disease protein project, biochemical, small-molecule microarray, fluorescence 635/667 (AID 1075);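 further: score combines 667 nm spot fluorescence with signal to noise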
Settings: NRG1 binding, 635 nm fluorescence, higher = more signal
Note to self: values exactly at 0.3 are 1. So composite z-score at or above 0.3 is 1, below is 0.

### Prompt Exam item: decide whether the reported composite z-score for COC(=O)[C@H](C)NC(=O)CCC1CC(OC(=O)NCCc2ccc(F)cc2)CC2(CCCC(COC(=O)NCCCN3CCCC3=O)O2)O1 (stereo partly drawn) is at least 0.3.
### Response 1

### Prompt Exam item: decide whether the reported composite z-score for CC(=O)OC[C@H]1O[C@H](C#CC(C)(C)C)C=C[C@@H]1OC(C)=O is at least 0.3.
### Response 1

### Prompt Exam item: decide whether the reported composite z-score for CC(C)CCN1CCc2nc(-c3ccccc3)c3c(c2C1)CO[C@@H](C)C3 is at least 0.3.
### Response 1

### Prompt Exam item: decide whether the reported composite z-score for CCOC(=O)[C@H](CC(C)C)NC(=O)CCC1CC(OC(=O)NCc2cccc3ccccc23)CC2(CCCC(COC(=O)NCc3ccccc3)O2)O1 (stereo partly drawn) is at least 0.3.
### Response 0

### Prompt Exam item: decide whether the reported composite z-score for O=C(NN=C1C[C@@H](O)[C@@H](O)[C@@H]2[C@@H]3C(=O)N(Cc4ccc5c(c4)OCO5)C(=O)[C@@H]3CC[C@H]12)OCc1ccccc1 is at least 0.3.
### Response 0

### Prompt Exam item: decide whether the reported composite z-score for CO[C@H]1COC(=O)CC=C[C@@H](C)COC(=O)[C@@H](OCc2ccccc2)C=C[C@@H]1C is at least 0.3.
### Response 0

### Prompt Exam item: decide whether the reported composite z-score for COc1ccc(COC(=O)NN=C2C[C@@H](O)[C@@H](O)[C@@H]3[C@@H]4C(=O)N(C(C)(C)C)C(=O)[C@@H]4CC[C@H]23)cc1 is at least 0.3.
### Response 1

Next:
### Prompt Exam item: decide whether the reported composite z-score for CO[C@@H]1COC(=O)CC=C[C@H](C)COC(=O)[C@H](C)NC(=O)CC=C[C@H]1C is at least 0.3.
### Response 0

###

For each entry below, report its z-score value.
Test: mitochondrial membrane potential change in A549 cells, profiling panel, cell-based, JC-1 fluorescence, basal, 24 h, 100 nL (AID 1138);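 further: A549 lung adenocarcinoma cells under basal conditions with no added stimulus; test concentration not given here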
Conditions: higher = more signal

# count of solved cases: 2
### Prompt Please indicate z-score recorded for CCCNC(=O)OC[C@H]1O[C@H](CCON=C(C)CCC(=O)OC[C@H]2O[C@H](C#Cc3ccccc3)C=C[C@@H]2Oc2ccc(C)cc2)C=C[C@@H]1Oc1ccc(OC)cc1
### Response -0.611

### Prompt Please indicate z-score recorded for CC(C)=NO[C@@H](C)c1cc(-c2c(C)cc(C)cc2C)no1
### Response -0.114

Provide each entry's z-score from the list below.
1. CCOC(=O)NN=C1C[C@@H](O)[C@@H](O)[C@@H]2[C@@H]3C(=O)N(Cc4ccc5c(c4)OCO5)C(=O)[C@@H]3CC[C@@H]12
2. CCOC(=O)[C@H](CC(C)C)NC(=O)CCC1CC(OC(=O)NCc2cccc3ccccc23)CC2(CCCC(COC(=O)NCc3ccccc3)O2)O1 (some centres not stated)
3. CCN1C(=O)[C@H]2[C@H]3[C@H](O)[C@H](O)CC(=NOC)[C@@H]3CC[C@H]2C1=O
4. Cc1ccc(S(=O)(=O)N[C@H]2COC(=O)[C@@H](C)COC(=O)[C@H](C)NC(=O)CC=C[C@H]2C)cc1
5. CC(C)=NOCc1ccc(-c2cn([C@@H]3COC[C@H]3O)nn2)cc1

### Response
[1.06, 0.629, 1.16, 0.637, 0.11]

Each recorded value in this set is attributed to PubChem BioAssay.
